- measurement notes: qHTS RealTime-Glo MT Cell Viability Assay in HEK293 cells - 24 hour (AID 1224886); also: top concentration of the series differs between compounds; nearly all actives have a fitted effect of over 50% in size
- cond: RealTime-Glo luminescence; series mostly up to 76.8 µM
Inconclusive results are not listed. Activity calls are given as the source filed them. Calls follow the shape of the dose curve; as a rule, active = well fitted cell-killing curve with a large enough effect in the repeat runs; inconclusive = weak or mixed curves, or effect the other way; inactive = flat fitted curve, though single readings scatter.
Entry note: the call must match one of active, inactive

-- ask // outcome(item) with item = O=C1C=CCCC1
-- reply inactive

-- ask Now consider O=c1[nH]nc(-c2ccc([N+](=O)[O-])o2)o1 and answer again.
-- reply inactive

-- ask Now consider CC(=O)OCC(=O)[C@@]1(O)CC[C@H]2[C@@H]3CCC4=CC(=O)C=C[C@]4(C)[C@@]3(F)[C@@H](O)C[C@@]21C and answer again.
-- reply inactive
